# Test system: MOLT-4 leukemia
# test_protocol: NCI tumour cell line growth inhibition, 384-well format
property: GI50

[
  {
    "compound": "C[C@@H]1COCCN1c1cc(C2(S(C)(=N)=O)CC2)nc(-c2ccnc3[nH]ccc23)n1 (some centres undefined)",
    "value_measured": "1020 nM"
  },
  {
    "compound": "C[C@@H]1CN(CC(=O)N2CC(C)(C)c3nc(CO)c(Cc4ccc(F)cc4)cc32)[C@@H](CN2CCOC[C@H]2C)CN1",
    "value_measured": "18500 nM"
  },
  {
    "compound": "N#Cc1ccc(OC(=O)Nc2cc(Cl)cc(Cl)c2)cc1",
    "value_measured": "2000 nM"
  },
  {
    "compound": "CC[C@H](CC#N)OC(=O)N[C@@H](C)c1cccc(NC(=O)Nc2ccc(-c3cnco3)c(OC)c2)c1",
    "value_measured": "20 nM"
  }
]

* * *

# Test system: HL-60(TB) leukemia
# test_protocol: NCI tumour cell line growth inhibition, 384-well format
Form field: TGI (one value per entry).
property: TGI (µM)

[
  {
    "smiles": "N#Cc1ccc(OC(=O)Nc2cc(Cl)cc(Cl)c2)cc1",
    "uom": "µM",
    "value_measured": 3.16
  },
  {
    "smiles": "CC[C@H](CC#N)OC(=O)N[C@@H](C)c1cccc(NC(=O)Nc2ccc(-c3cnco3)c(OC)c2)c1",
    "uom": "µM",
    "value_measured": 0.22
  },
  {
    "smiles": "OCc1ccc(-c2nn(Cc3ccccc3)c3ccccc23)o1",
    "uom": "µM",
    "value_measured": 30.4
  },
  {
    "smiles": "C[C@@H]1CN(CC(=O)N2CC(C)(C)c3nc(CO)c(Cc4ccc(F)cc4)cc32)[C@@H](CN2CCOC[C@H]2C)CN1",
    "uom": "µM",
    "value_measured": 18.9
  }
]
